src = EPA's ToxValDB 9.5 (doi:10.2903/j.efsa.2020.6338)

# Tested on: Bovidae
# PARTICULARS: subchronic; duration: 42 days; oral; diet; M; no effects
Hi, to clarify the labels: condition met covers LEL from 100 mg/kg-day upward, condition not met covers anything below 100 mg/kg-day.

>>> print(df.to_string())
                                   compound  assigned_category
0  CC(C)CC(=O)OCCc1ccccc1 [Phenethyl isovalerate]      condition met
1                          COc1ccc2ccccc2c1  condition not met
2   C=CC(C)(O)CCC=C(C)C (centres undefined)      condition met
3         CCCCCCC(=O)OCC [Ethyl heptanoate]      condition met
4  CC1CCC(C(C)(C)S)C(=O)C1 (centres undefined)  condition not met
5                           Cc1csc(C(C)C)n1  condition not met
6    CC(=O)OCCC(C)C [3-Methylbutyl acetate]      condition met
7                               OCCc1ccccc1      condition met
